System: E.coli S30 extract (bacterial protein synthesis)
procedure text: E.coli S30 extract: inhibition of bacterial protein synthesis (luciferase)
Type: biochemical
assay setup: 37° C. for 1 hour
Description: E.coli S30 extract: Inhibition of bacterial protein synthesis was determined using the E.coli S30 Extract System for Circular DNA (Promega catalog #L-2010) and Luciferase Assay Reagent (Promega catalog #E1500) with slight modifications to a published protocol. Fyfe, C., Sutcliffe, J.A. and Grossman, T.H. (2012) “Development and characterization of a Pseudomonas aeruginosa in vitro coupled transcription-translation assay system for evaluation of translation inhibitors” J. Microbiol. […]
Where a name gives a salt, the structure may show the parent alone.
List of IC50 values.

Look over these answered cases.
molecule	readout name	result
CC(C)(N)C(=O)N1CCN(C(=O)Nc2ccn(-c3ccc4c(c3)OCC(N3CC5CC5(CN)C3)C4)c(=O)n2)CC1 (stereo not drawn) [Compound 23, Hydrochloride Salt]	IC50	≥ 1000 nM
CC(C)(N)C(=O)N1CCN(C(=O)Nc2ccn(-c3ccc4c(c3)CCC(N[C@H]3CC[C@H](N)C3)C4)c(=O)n2)CC1 (single isomer, unassigned) [Compound 27, Hydrochloride Salt]	IC50	< 500 nM

Could you now consider this next molecule?
Measured IC50, CC(C)(N)C(=O)N1CCN(C(=O)Nc2ccn(-c3ccc4c(c3)CCC(N[C@H]3CC[C@@H](N)C3)C4)c(=O)n2)CC1 (single isomer, unassigned) [Compound 33, Hydrochloride Salt] : < 500 nM

---

Tested on: S.aureus (Sa)
procedure text: Broth microdilution MIC against S.aureus (Sa)
Type: cell-based
assay setup: Staphylococcus aureus, CAMHB supplemented with sodium bicarbonate 6.25 mM; read-out: Sa + bicarb 6.25 (MIC)
Where a name gives a salt, the structure may show the parent alone.
List of MIC values.

molecule	MIC
CC(C)(N)C(=O)N1CCN(C(=O)Nc2ccn(-c3ccc4c(c3)CCN(C3CCC(N)CC3)C4)c(=O)n2)CC1 (stereo not shown) [Compound 35, Hydrochloride Salt]	< 8 µg/mL

Measured MIC, CC(C)(N)C(=O)N1CCN(C(=O)Nc2ccn(-c3ccc4c(c3)CCC(N3CCCC(N)CC3)C4)c(=O)n2)CC1 (stereo not shown) [Compound 43, Hydrochloride Salt] : < 8 µg/mL

Measured MIC, CC(C)(N)C(=O)N1CCN(C(=O)Nc2ccn(-c3ccc4c(c3)CCC(N[C@H]3CC[C@@H](N)C3)C4)c(=O)n2)CC1 (stereo partly shown) [Compound 26, Hydrochloride Salt] : < 8 µg/mL

---

Test system: E.coli S30 extract (bacterial protein synthesis)
procedure text: E.coli S30 extract: inhibition of bacterial protein synthesis (luciferase)
Format: biochemical
assay setup: 37° C. for 1 hour
pIC50: −log10 of the molar value. Structures can show the parent of a compound that is named as a salt.
readout name: pIC50

compound	pIC50
CC(C)(N)C(=O)N1CCN(C(=O)Nc2ccn(-c3ccc4c(c3)CCC(N[C@H]3CC[C@@H](N)C3)C4)c(=O)n2)CC1 (stereo partly shown) [Compound 26, Hydrochloride Salt]	> 6.30

Measured pIC50, CC(C)(N)C(=O)N1CCN(C(=O)Nc2ccn(-c3ccc4c(c3)CCC(N(CC3CC3)[C@H]3CC[C@H](N)CC3)C4)c(=O)n2)CC1 (stereo partly shown) [Compound 17, hydrochloride salt] : 6.00 to 6.30

Measured pIC50, CC(C)(N)C(=O)N1CCN(C(=O)Nc2ccn(-c3ccc4c(c3)CCC(N(CC3CC3)[C@H]3CC[C@H](N)C3)C4)c(=O)n2)CC1 (stereo partly shown) [Compound 21, Hydrochloride Salt] : > 6.30

Measured pIC50, CN(C1CCc2cc(-n3ccc(NC(=O)N4CCN(C(=O)C(C)(C)N)CC4)nc3=O)ccc2C1)[C@H]1CC[C@H](N)C1 (stereo partly shown) [Compound 19, Hydrochloride Salt] : > 6.30

Measured pIC50, CC(C)(N)C(=O)N1CCN(C(=O)Nc2ccn(-c3ccc4c(c3)CCC(N[C@H]3CC[C@@H](N)CC3)C4)c(=O)n2)CC1 (stereo partly shown) [Compound 6, Hydrochloride Salt] : > 6.30

Measured pIC50, CC(C)(N)C(=O)N1CCN(C(=O)Nc2ccn(-c3ccc4c(c3)CC(N[C@H]3CC[C@H](N)CC3)C4)c(=O)n2)CC1 (stereo partly shown) [Compound 38, Hydrochloride Salt] : > 6.30

Measured pIC50, CC(C)(N)C(=O)N1CCN(C(=O)Nc2ccn(-c3ccc4c(c3)CCC(N3CC[C@H](CN)C3)C4)c(=O)n2)CC1 (stereo partly shown) [Compound 5, Hydrochloride Salt] : > 6.30

---

test system: Rabbit Reticulocyte Lysate (eukaryotic protein synthesis)
procedure text: Rabbit Reticulocyte Lysate: inhibition of eukaryotic protein synthesis (luciferase)
assay setup: 30° C. for 90 minutes, read-out: retic. IC50
pIC50: −log10 of the molar value. Where a name gives a salt, the structure may show the parent alone.
readout name: pIC50

molecule	result
CC(C)(N)C(=O)N1CCN(C(=O)Nc2ccn(-c3ccc4c(c3)CCC(N[C@H]3CC[C@@H](N)C3)C4)c(=O)n2)CC1 (single isomer, unassigned) [Compound 34, Hydrochloride Salt]	≤ 6.00

Measured pIC50, CC(C)(N)C(=O)N1CCN(C(=O)Nc2ccn(-c3ccc4c(c3)CCC(N[C@H]3CC[C@@H](N)C3)C4)c(=O)n2)CC1 (some centres unmarked) [Compound 26, Hydrochloride Salt] : ≤ 6.00

Measured pIC50, CC(C)(N)C(=O)N1CCN(C(=O)Nc2ccn(-c3ccc4c(c3)CCC(NC3CC5(CC(N)C5)C3)C4)c(=O)n2)CC1 (centres unmarked) [Compound 8, Hydrochloride Salt] : ≤ 6.00

Measured pIC50, CC(C)(N)C(=O)N1CCN(C(=O)Nc2ccn(-c3ccc4c(c3)CCC(N[C@H]3C[C@H](N)C3)C4)c(=O)n2)CC1 (some centres unmarked) [Compound 29, Hydrochloride Salt] : ≤ 6.00

Measured pIC50, CC(C)(N)C(=O)N1CCN(C(=O)Nc2ccn(-c3ccc4c(c3)CCC(N3CC(CN)C3)C4)c(=O)n2)CC1 (centres unmarked) [Compound 40, Hydrochloride Salt] : ≤ 6.00

Measured pIC50, CC(C)(N)C(=O)N1CCN(C(=O)Nc2ccn(-c3ccc4c(c3)CCC(N3CC[C@H](CN)C3)C4)c(=O)n2)CC1 (some centres unmarked) [Compound 5, Hydrochloride Salt] : ≤ 6.00

Measured pIC50, CC(C)(N)C(=O)N1CCN(C(=O)Nc2ccn(-c3ccc4c(c3)OCC(N3CC5CC5(CN)C3)C4)c(=O)n2)CC1 (centres unmarked) [Compound 23, Hydrochloride Salt] : ≤ 6.00

Measured pIC50, CC(C)(N)C(=O)N1CCN(C(=O)Nc2ccn(-c3ccc4c(c3)OCC(N3C[C@@H]5[C@@H](CN)[C@@H]5C3)C4)c(=O)n2)CC1 (some centres unmarked) [Compound 12, hydrochloride salt] : ≤ 6.00

Measured pIC50, CC(C)(N)C(=O)N1CCN(C(=O)Nc2ccn(-c3ccc4c(c3)OCC(N3C[C@@H]5[C@@H](N)[C@@H]5C3)C4)c(=O)n2)CC1 (some centres unmarked) [Compound 13, Hydrochloride Salt] : ≤ 6.00

Measured pIC50, CN(C1CCc2cc(-n3ccc(NC(=O)N4CCN(C(=O)C(C)(C)N)CC4)nc3=O)ccc2C1)C1CC2(CC(N)C2)C1 (centres unmarked) [Compound 11, Hydrochloride Salt] : ≤ 6.00

Measured pIC50, COC(=O)N[C@H]1CC[C@H](NC2CCc3cc(-n4ccc(NC(=O)N5CCN(C(=O)C(C)(C)N)CC5)nc4=O)ccc3C2)C1 (some centres unmarked) [Compound 45, Hydrochloride Salt] : ≤ 6.00

---

List of IC50 values.
test system: Rabbit Reticulocyte Lysate (eukaryotic protein synthesis)
procedure text: Rabbit Reticulocyte Lysate: inhibition of eukaryotic protein synthesis (luciferase)
Type: biochemical
assay setup: 30° C. for 90 minutes, read-out: retic. IC50
Counter-ions that a name gives are not always drawn.

Look over these answered cases.
compound	readout name	result
CC(C)(N)C(=O)N1CCN(C(=O)Nc2ccn(-c3ccc4c(c3)CCC(N[C@H]3CC[C@H](N)C3)C4)c(=O)n2)CC1 (stereo in doubt) [Compound 10, Hydrochloride Salt]	IC50	≥ 1000 nM
CC(C)(N)C(=O)N1CCN(C(=O)Nc2ccn(-c3ccc4c(c3)CCC(N[C@H]3CC[C@H](N)CC3)C4)c(=O)n2)CC1 (some centres unmarked) [Compound 7, Hydrochloride Salt]	IC50	≥ 1000 nM
CC(C)(N)C(=O)N1CCN(C(=O)Nc2ccn(-c3ccc4c(c3)CCC(N(CC3CC3)[C@H]3CC[C@H](N)CC3)C4)c(=O)n2)CC1 (some centres unmarked) [Compound 17, hydrochloride salt]	IC50	≥ 1000 nM
CC(C)(N)C(=O)N1CCN(C(=O)Nc2ccn(-c3ccc4c(c3)CC(N[C@H]3CC[C@H](N)C3)C4)c(=O)n2)CC1 (some centres unmarked) [Compound 36, Hydrochloride Salt]	IC50	< 500 nM

Could you now consider this next compound?
Measured IC50, CCN(C1CCc2cc(-n3ccc(NC(=O)N4CCN(C(=O)C(C)(C)N)CC4)nc3=O)ccc2C1)[C@H]1CC[C@H](N)CC1 (some centres unmarked) [Compound 16, hydrochloride salt] : ≥ 1000 nM
